Test: Vero cells viability qHTS for Zika virus inhibitors (AID 1347167)
Conditions: cytotoxicity counter-screen (Zika); series mostly up to 45.9 µM
Records with an inconclusive call do not appear. Activity calls are given as the source filed them. Calls follow the shape of the dose curve; as a rule, active = well fitted cell-killing curve with a large enough effect; inconclusive = small, poorly fitted or top-dose-only effect; inactive = flat fitted curve, though single readings scatter.
Thanks in advance; please answer with one of these: active, inactive

Previously resolved entries follow.
>>> label_class("Cc1ccc(C(=O)Nc2cccc(C(F)(F)F)c2)cc1-c1ccc2nc(NCCN3CCOCC3)ncc2c1")
"inactive"
>>> label_class("C[C@@]12O[C@@H](C[C@]1(O)CO)n1c3ccccc3c3c4c(c5c6ccccc6n2c5c31)CNC4=O")
"inactive"
>>> label_class("CCn1cc(-c2ccnc3[nH]c(-c4cccc(CN(C)C)c4)cc23)c(-c2ccc(NC(=O)N(C)C)cc2)n1")
"inactive"

Qu. # fetch the recorded call for CC(C)c1ccccc1Cc1cc(C(=O)Nc2ccc(S(=O)(=O)c3ccccc3C(C)(C)C)cc2)c(O)c(O)c1O here
Ans. inactive

Qu. Likewise for O=C(Nc1cc(C(F)(F)F)cc(C(F)(F)F)c1)c1cc(Cl)ccc1O ?
Ans. active

----------
Test: qHTS of pediatric cancer cell lines to identify multiple opportunities for drug repurposing: Confirmatory screen for control Hh wild type fibroblast cells (AID 1347121); also: nearly all actives have a fitted effect of over 70% in size
Conditions: viability qHTS; series mostly up to 45.9 µM
Inconclusive results are not listed. Calls of active or inactive are those of the source. The call rests on the fitted dose curve; in most records, active means well fitted cell-killing curve with a large enough effect; inconclusive means small, poorly fitted or top-dose-only effect, or effect the other way; inactive means flat fitted curve, though single readings scatter.
Hi! Could you answer with just one of these? active, inactive

>>> label_class("CN(C)CCCN=c1c2ccccc2n(C)c2[nH]c(=O)n(C)c(=O)c12")
"inactive"
>>> label_class("CC[C@@H]1C(=O)N(C)c2cnc(Nc3ccc(C(=O)NC4CCN(C)CC4)cc3OC)nc2N1C1CCCC1")
"active"
>>> label_class("Cc1cc(C(=O)N2CCN(c3cccc(Cl)c3)CC2)n(-c2ccccc2)n1")
"inactive"
>>> label_class("COc1ccc(C=Cc2cc(OC)c(OC)c(OC)c2)cc1O")
"inactive"
>>> label_class("C=CC(=O)Nc1cccc(Oc2nc(Nc3ccc(N4CCN(C)CC4)cc3)ncc2Cl)c1")
"active"
>>> label_class("CN(c1ncccc1CNc1nc(Nc2ccc3c(c2)CC(=O)N3)ncc1C(F)(F)F)S(C)(=O)=O")
"inactive"
>>> label_class("CC(NCc1ccc2c(c1)nc(NC(=O)c1ccc(-c3cn[nH]c3)s1)n2CC(C)(C)O)C(C)(C)C (configuration not stated)")
"active"
>>> label_class("COc1cccc2c(NCc3ccccc3)nc(-n3c(N)nc4ccccc43)nc12")
"active"

Qu. Recorded test call requested for C#Cc1cccc(Nc2ncnc3cc(OC)c(OCCCCCCC(=O)NO)cc23)c1
Ans. active

Qu. Continue with CC(C)(C)OC(=O)Nc1ccc(-c2cc(C(=O)NCCCCCCC(=O)NO)no2)cc1
Ans. inactive

Qu. And what about the compound Cn1c2ccccc2c2c3c(c4c5ccccc5n(CCC#N)c4c21)CNC3=O ?
Ans. inactive

Qu. Can you check CC1(C)CCC(c2ccc(Cl)cc2)=C(CN2CCN(c3ccc(C(=O)NS(=O)(=O)c4ccc(N[C@H](CCN5CCOCC5)CSc5ccccc5)c(S(=O)(=O)C(F)(F)F)c4)cc3)CC2)C1 next?
Ans. inactive

Qu. Field entry: CNC(=O)CN1CCC(Oc2cc3c(Nc4cccc(Cl)c4F)ncnc3cc2OC)CC1
Ans. inactive

----------
Experiment: qHTS of pediatric cancer cell lines to identify multiple opportunities for drug repurposing: Primary screen for MG 63 (6-TG R) cells (AID 1347105); also: nearly all actives have a fitted effect of over 50% in size
Details: MG 63 (6-TG R) viability, CellTiter-Glo, 48 h; series mostly up to 46 µM
Records with an inconclusive call do not appear. Active and inactive are the calls of the source. Calls follow the shape of the dose curve; as a rule, active = well fitted cell-killing curve with a large enough effect; inconclusive = small, poorly fitted or top-dose-only effect; inactive = no such curve, though single readings can be large or run the other way.
Parameter call: string, one of active, inactive

>>> label_class("COc1c(OCCCN2CCOCC2)ccc2c3n(c(=NC(=O)c4cnc(N)nc4)nc12)CCN3")
"active"
>>> label_class("C=C1C(=CC=C2CCCC3(C)[C@@H]([C@H](C)C=CC=CC(O)(CC)CC)CC[C@@H]23)C[C@@H](O)C[C@@H]1O (stereo partly drawn)")
"inactive"
>>> label_class("COc1cc(=C2C=c3ccccc3=N2)[nH]c1=Cc1[nH]c(C)cc1C")
"active"
>>> label_class("Cc1ccc(C(=O)Nc2ccc(CN3CCN(C)CC3)c(C(F)(F)F)c2)cc1C#Cc1cnc2cccnn12")
"active"
>>> label_class("CC(O)C1C(=O)N2C(C(=O)O)=C(SC3CNC(C(=O)N(C)C)C3)C(C)C12 (stereo not drawn)")
"inactive"

Qu. Dear all, I need the recorded test outcome for COc1cccc(Nc2c(C(N)=O)cnc3c(C)cc(S(=O)(=O)c4cccc(C(=O)N(C)C)c4)cc23)c1 , thank you.
Ans. inactive

Qu. Repeat for the following compound: CC1=C(CO)C(=O)O[C@@H]([C@@H](C)[C@H]2CC[C@H]3[C@@H]4C[C@H]5O[C@]56[C@@H](O)C=CC(=O)[C@]6(C)[C@@H]4CC[C@]23C)C1
Ans. active

Qu. Another compound: Cc1cc(Nc2nc(N[C@@H](C)c3ccc(F)cc3)c(C#N)cc2F)n[nH]1
Ans. active
